molecular target: Voltage-dependent T-type calcium channel subunit alpha-1H (Homo sapiens); test: Inhibition of human T-type calcium channel Cav3.2 expressed in CHO cells assessed as inhibition of calcium tail current at -60 mV holding potential measured after 150 secs by QPatch assay; type: cell-based
Sequence (O95180 whole entry): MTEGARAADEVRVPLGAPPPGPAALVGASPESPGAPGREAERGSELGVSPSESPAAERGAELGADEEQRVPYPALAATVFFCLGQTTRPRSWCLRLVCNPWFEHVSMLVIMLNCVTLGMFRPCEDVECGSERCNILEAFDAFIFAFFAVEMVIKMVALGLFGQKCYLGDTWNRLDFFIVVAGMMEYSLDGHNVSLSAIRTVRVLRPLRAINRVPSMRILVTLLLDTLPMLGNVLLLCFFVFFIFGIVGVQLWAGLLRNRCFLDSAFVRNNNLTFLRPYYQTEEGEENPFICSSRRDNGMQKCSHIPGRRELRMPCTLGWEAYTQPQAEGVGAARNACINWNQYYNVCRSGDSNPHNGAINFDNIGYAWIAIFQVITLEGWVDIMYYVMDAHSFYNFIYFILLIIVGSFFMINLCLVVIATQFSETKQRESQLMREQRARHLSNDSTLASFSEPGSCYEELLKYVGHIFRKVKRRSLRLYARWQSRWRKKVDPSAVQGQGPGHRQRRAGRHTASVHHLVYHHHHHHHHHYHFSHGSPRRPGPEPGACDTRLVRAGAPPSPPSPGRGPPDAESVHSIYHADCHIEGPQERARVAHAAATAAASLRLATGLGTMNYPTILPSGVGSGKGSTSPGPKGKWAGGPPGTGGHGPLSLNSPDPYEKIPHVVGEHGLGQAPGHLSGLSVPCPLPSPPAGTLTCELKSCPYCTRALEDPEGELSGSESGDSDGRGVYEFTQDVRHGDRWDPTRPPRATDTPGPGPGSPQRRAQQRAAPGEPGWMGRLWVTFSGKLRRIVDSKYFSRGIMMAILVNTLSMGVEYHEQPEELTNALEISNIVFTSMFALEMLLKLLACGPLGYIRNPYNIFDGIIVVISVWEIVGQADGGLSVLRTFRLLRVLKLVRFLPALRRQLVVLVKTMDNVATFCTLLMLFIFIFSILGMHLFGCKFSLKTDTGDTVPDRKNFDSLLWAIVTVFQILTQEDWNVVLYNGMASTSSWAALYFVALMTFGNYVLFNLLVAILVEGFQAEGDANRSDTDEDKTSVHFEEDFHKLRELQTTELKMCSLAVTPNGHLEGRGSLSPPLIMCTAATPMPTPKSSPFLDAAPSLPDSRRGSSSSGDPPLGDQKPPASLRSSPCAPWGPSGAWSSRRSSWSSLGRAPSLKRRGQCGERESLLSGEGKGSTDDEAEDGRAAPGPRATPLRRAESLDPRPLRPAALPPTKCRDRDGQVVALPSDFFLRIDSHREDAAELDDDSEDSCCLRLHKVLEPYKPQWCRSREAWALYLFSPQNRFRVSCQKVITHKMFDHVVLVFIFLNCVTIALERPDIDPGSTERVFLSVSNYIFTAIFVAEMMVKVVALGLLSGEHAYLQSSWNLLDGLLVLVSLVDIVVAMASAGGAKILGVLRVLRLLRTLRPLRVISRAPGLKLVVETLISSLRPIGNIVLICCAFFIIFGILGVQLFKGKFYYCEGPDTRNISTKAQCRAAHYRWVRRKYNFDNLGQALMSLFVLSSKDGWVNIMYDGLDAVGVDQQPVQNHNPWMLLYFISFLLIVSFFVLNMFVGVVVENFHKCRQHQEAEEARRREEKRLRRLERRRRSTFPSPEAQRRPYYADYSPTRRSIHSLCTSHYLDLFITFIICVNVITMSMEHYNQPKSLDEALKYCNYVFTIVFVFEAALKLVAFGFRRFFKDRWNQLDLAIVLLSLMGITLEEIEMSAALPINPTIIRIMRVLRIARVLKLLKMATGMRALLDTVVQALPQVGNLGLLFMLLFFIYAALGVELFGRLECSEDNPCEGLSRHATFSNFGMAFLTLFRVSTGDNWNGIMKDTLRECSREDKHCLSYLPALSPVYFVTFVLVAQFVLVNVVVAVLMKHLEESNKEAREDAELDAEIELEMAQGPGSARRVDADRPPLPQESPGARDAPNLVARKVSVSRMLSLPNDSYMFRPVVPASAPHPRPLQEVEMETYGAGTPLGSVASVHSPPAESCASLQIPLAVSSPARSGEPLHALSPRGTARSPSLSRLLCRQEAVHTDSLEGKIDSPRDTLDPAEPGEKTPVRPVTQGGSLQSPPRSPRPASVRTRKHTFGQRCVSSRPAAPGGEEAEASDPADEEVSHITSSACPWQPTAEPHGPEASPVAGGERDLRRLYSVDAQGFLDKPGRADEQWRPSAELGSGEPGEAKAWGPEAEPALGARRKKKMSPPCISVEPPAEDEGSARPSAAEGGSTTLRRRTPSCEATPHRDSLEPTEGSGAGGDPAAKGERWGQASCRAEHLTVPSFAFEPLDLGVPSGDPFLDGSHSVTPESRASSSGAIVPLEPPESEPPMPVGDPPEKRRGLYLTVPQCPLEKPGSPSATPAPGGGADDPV
readout.type: IC50 (nM)
Value expressed in nM; do not type the unit.

INPUT: Please give the measured IC50 for this molecule: O=C(Nc1ccc(F)cc1)N1N=C(c2ccncc2)CC1c1ccc(F)cc1 (stereo unspecified)
OUTPUT: 220

----------
target: Voltage-dependent T-type calcium channel subunit alpha-1G (Homo sapiens); test: Inhibition of human T-type calcium channel Cav3.1 expressed in CHO cells assessed as inhibition of calcium tail current at -90 mV holding potential measured after 150 secs by QPatch assay; format: cell-based
Sequence (O43497 whole entry): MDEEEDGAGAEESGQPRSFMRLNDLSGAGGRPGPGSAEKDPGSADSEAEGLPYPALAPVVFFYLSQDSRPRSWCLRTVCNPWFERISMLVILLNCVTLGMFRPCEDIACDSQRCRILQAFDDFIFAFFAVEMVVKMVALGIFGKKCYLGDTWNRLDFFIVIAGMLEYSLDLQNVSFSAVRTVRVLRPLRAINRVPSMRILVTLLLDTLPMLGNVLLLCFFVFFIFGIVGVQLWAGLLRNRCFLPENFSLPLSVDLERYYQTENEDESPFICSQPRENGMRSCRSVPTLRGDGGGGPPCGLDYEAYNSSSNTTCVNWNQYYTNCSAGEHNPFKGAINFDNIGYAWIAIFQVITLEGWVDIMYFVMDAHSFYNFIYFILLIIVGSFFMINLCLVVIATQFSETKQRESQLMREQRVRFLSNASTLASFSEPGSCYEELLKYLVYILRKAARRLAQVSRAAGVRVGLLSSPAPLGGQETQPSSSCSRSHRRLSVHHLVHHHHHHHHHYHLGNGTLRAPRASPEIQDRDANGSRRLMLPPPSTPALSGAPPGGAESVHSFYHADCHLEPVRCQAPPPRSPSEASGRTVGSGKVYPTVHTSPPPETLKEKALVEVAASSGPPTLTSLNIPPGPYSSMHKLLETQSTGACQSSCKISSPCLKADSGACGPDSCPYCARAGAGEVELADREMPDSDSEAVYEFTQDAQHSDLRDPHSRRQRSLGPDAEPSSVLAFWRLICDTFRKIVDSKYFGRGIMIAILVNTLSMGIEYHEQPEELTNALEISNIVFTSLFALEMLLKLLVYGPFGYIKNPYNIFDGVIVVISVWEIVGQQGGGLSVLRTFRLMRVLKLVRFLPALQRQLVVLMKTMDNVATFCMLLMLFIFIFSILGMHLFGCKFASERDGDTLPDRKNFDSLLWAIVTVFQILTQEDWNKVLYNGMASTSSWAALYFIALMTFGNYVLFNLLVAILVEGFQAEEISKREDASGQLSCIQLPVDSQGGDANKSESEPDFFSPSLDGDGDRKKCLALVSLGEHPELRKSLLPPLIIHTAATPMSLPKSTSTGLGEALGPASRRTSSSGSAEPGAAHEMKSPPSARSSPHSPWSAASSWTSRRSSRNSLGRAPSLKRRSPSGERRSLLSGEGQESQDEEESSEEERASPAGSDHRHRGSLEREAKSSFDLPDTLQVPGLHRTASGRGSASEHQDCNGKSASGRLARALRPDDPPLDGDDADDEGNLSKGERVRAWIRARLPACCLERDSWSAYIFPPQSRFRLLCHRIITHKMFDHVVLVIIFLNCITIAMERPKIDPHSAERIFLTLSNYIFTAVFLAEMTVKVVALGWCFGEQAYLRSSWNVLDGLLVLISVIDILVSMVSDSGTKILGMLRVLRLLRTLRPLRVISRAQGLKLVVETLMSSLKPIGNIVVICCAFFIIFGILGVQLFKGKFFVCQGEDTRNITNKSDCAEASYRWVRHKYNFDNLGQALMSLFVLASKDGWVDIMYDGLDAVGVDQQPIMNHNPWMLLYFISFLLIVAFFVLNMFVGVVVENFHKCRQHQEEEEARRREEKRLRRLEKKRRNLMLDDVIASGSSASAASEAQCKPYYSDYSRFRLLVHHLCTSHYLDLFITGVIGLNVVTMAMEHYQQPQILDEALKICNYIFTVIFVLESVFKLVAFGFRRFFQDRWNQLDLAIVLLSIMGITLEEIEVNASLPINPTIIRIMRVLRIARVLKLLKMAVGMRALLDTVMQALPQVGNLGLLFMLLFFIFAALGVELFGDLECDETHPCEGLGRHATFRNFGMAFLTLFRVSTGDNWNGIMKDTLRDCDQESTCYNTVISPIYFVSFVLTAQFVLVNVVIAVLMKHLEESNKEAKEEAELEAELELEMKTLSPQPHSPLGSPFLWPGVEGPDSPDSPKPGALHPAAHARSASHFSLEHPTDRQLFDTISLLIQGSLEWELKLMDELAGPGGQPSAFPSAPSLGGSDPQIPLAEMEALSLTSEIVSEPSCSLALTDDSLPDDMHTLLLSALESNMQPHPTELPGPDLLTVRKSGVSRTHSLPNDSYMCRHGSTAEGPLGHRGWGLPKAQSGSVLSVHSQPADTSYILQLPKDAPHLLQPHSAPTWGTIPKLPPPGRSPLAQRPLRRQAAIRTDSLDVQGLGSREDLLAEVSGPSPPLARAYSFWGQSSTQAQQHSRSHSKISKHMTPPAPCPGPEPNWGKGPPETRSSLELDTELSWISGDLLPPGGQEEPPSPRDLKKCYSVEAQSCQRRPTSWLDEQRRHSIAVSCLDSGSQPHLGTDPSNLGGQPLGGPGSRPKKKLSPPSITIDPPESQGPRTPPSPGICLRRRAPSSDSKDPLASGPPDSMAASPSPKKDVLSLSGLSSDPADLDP
readout.type: IC50 (nM)
Value expressed in nM; do not type the unit.

INPUT: Please give the measured IC50 for this compound: O=C(Nc1ccc(F)cc1)N1N=C(c2ccncc2)CC1c1ccc(F)cc1 (stereo unspecified)
OUTPUT: 1800
